Sourced from the supplement of paper PMC10724198

test system: Saccharomyces cerevisiae; test: protein stability index of tFT-peptide fusion (C-terminal peptide) (PSI (0-1 scale)); higher = more stable (slower turnover); settings: genetic background: das1 deletion; temperature: 37 C;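 further: PSI is a weighted mean of sequencing reads over stability bins, variants kept only with over 10 reads, mCherry proximal and sfGFP distal, peptide attached via GGGS linker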
Assign Yes to entries whose protein stability index meets or exceeds 0.5; assign No to the rest.

Exam item: Quick check, protein stability index >= 0.5? `ISATYSYIPVVG`
Marked response: Yes

Exam item: Quick check, protein stability index >= 0.5? `LLFVLWLSFFVL`
Marked response: No

Exam item: Quick check, protein stability index >= 0.5? `VYLVVLYLRYFA`
Marked response: No

Exam item: Quick check, protein stability index >= 0.5? `LSRLWVVGWVVA`
Marked response: Yes

Exam item: Quick check, protein stability index >= 0.5? `FFAFLRFFIFYW`
Marked response: No

Exam item: Quick check, protein stability index >= 0.5? `QWTVRNQGVMQR`
Marked response: Yes

Exam item: Quick check, protein stability index >= 0.5? `VFFFVSFFAFSS`
Marked response: No

Exam item: Quick check, protein stability index >= 0.5? `SVQICGFWLILG`
Marked response: Yes

Exam item: Quick check, protein stability index >= 0.5? `IVFLPVLLWFSV`
Marked response: No

Exam item: Quick check, protein stability index >= 0.5? `QDQWINTSLELS`
Marked response: Yes

Exam item: Quick check, protein stability index >= 0.5? `VAFFSVFYWLEC`
Marked response: No

Exam item: Quick check, protein stability index >= 0.5? `FASVFCVVTGYV`
Marked response: Yes

Exam item: Quick check, protein stability index >= 0.5? `RSRNSEYILVYN`
Marked response: Yes

Exam item: Quick check, protein stability index >= 0.5? `IFRLVRVVRSSS`
Marked response: Yes

Exam item: Quick check, protein stability index >= 0.5? `FGVVRVSIPVGV`
Marked response: No

Exam item: Quick check, protein stability index >= 0.5? `NYVFRIIIVLDA`
Marked response: No

Exam item: Quick check, protein stability index >= 0.5? `HYTSFAVPPLVY`
Marked response: Yes

Exam item: Quick check, protein stability index >= 0.5? `YDLRRIGRIGVG`
Marked response: No

Exam item: Quick check, protein stability index >= 0.5? `VCLLVSVCLLWL`
Marked response: No

Exam item: Quick check, protein stability index >= 0.5? `PRSLHVLSRFLP`
Marked response: Yes

Exam item: Quick check, protein stability index >= 0.5? `VYFASCVVLLMV`
Marked response: No

Exam item: Quick check, protein stability index >= 0.5? `PALYLSLWFLFP`
Marked response: Yes

Exam item: Quick check, protein stability index >= 0.5? `GGRHYGILDLSL`
Marked response: Yes

Exam item: Quick check, protein stability index >= 0.5? `FLPGEAVFVYCR`
Marked response: Yes

Exam item: Quick check, protein stability index >= 0.5? `DKKPMKKILLCI`
Marked response: Yes

Exam item: Quick check, protein stability index >= 0.5? `VRLSQVNRLICT`
Marked response: Yes

---

tested on: Saccharomyces cerevisiae; experiment: protein stability index of tFT-peptide fusion (C-terminal peptide) (PSI (0-1 scale)); higher = more stable (slower turnover); conditions: genetic background: wild type; temperature: 30 C
Assign TRUE to entries whose protein stability index meets or exceeds 0.7; assign FALSE to the rest.

Exam item: Quick check, protein stability index >= 0.7? `LRSLLYDKVISL`
Marked response: FALSE

Exam item: Quick check, protein stability index >= 0.7? `PVFPSFGVSEFV`
Marked response: TRUE

Exam item: Quick check, protein stability index >= 0.7? `PLLDEQCLGIDS`
Marked response: FALSE

Exam item: Quick check, protein stability index >= 0.7? `FLIFVVIGGVGL`
Marked response: FALSE

Exam item: Quick check, protein stability index >= 0.7? `KKKKTQKKKTKQ`
Marked response: FALSE

Exam item: Quick check, protein stability index >= 0.7? `GPGSWKWKSRRV`
Marked response: FALSE

Exam item: Quick check, protein stability index >= 0.7? `RAAQVFPHVLPR`
Marked response: FALSE

Exam item: Quick check, protein stability index >= 0.7? `CLRRGGAGDGAS`
Marked response: FALSE

Exam item: Quick check, protein stability index >= 0.7? `WAGQWCRGRAGG`
Marked response: TRUE

Exam item: Quick check, protein stability index >= 0.7? `PTLPPPPRPPAP`
Marked response: FALSE

Exam item: Quick check, protein stability index >= 0.7? `SGKIDKGAIAIS`
Marked response: FALSE

Exam item: Quick check, protein stability index >= 0.7? `GLGVPWVRWGWV`
Marked response: FALSE

Exam item: Quick check, protein stability index >= 0.7? `PHPRSVSPPPPS`
Marked response: FALSE

Exam item: Quick check, protein stability index >= 0.7? `KNGLERFTSNRS`
Marked response: FALSE

Exam item: Quick check, protein stability index >= 0.7? `SLAPPVILPSHP`
Marked response: FALSE

Exam item: Quick check, protein stability index >= 0.7? `YTSTSTILRPFP`
Marked response: FALSE

Exam item: Quick check, protein stability index >= 0.7? `KTDNTRTQKMVR`
Marked response: TRUE

Exam item: Quick check, protein stability index >= 0.7? `GKNIINSKITYK`
Marked response: TRUE

Exam item: Quick check, protein stability index >= 0.7? `FFVSFFFFLWLV`
Marked response: FALSE

Exam item: Quick check, protein stability index >= 0.7? `LFSSPPSLPPPL`
Marked response: TRUE

Exam item: Quick check, protein stability index >= 0.7? `VGCSGGRGAGVV`
Marked response: FALSE

Exam item: Quick check, protein stability index >= 0.7? `RSTTDNADRILY`
Marked response: TRUE

Exam item: Quick check, protein stability index >= 0.7? `NPTDIAINTGIS`
Marked response: TRUE

Exam item: Quick check, protein stability index >= 0.7? `LHFYASFPSPLV`
Marked response: FALSE

Exam item: Quick check, protein stability index >= 0.7? `FGFRLFLPSFSA`
Marked response: FALSE

Exam item: Quick check, protein stability index >= 0.7? `DWSGTISVSSLR`
Marked response: FALSE

Exam item: Quick check, protein stability index >= 0.7? `DAGWTRGGEGVW`
Marked response: TRUE
